Target: MAPK14;MAPK11;MAPK12 (human) (UniProt Q16539)
Assay: Inhibition of p38 Kinase Activity
Can you tell me IC50 for the items I'm about to list?

# COMPOUND, SYSTEM_TESTED, OBSERVATION_TYPE, EXPERIMENTAL_RESULT
data = [
    ("CONC(=O)c1ccc(C)c(Nc2cc(F)nc(N(C)CC(C)(C)C)n2)c1", "MAPK14;MAPK11;MAPK12 (human) (UniProt Q16539)", "IC50", "< 1 µM"),
    ("Cc1ccc(C(N)=O)cc1Nc1nc(N[C@@H]2CCN(C(C)CC(C)C)C2)nc(N(C)CC(C)(C)C)n1 (stereo partly specified)", "MAPK14;MAPK11;MAPK12 (human) (UniProt Q16539)", "IC50", "< 1 µM"),
]

Please supply IC50 for each of the following items, keeping them in order.
1. Cc1ccc(C(N)=O)cc1Nc1nc(N[C@H]2CCN(Cc3ccccn3)C2)nc(N(C)CC(C)C)n1
2. Cc1ccc(C(N)=O)cc1Nc1nc(N[C@H]2CCNC2)cc(N(C)CC(C)(C)C)n1
3. COc1ccc(C(=O)N(C)CCCN(C)c2nc(NCC(C)c3ccccc3)nc(Nc3ccc4ncsc4c3)n2)cc1 (stereo unspecified)
4. CONC(=O)c1ccc(C)c(Nc2nc(NCc3ccccn3)nc(N(C)CC(C)(C)C)n2)c1
5. CC(CCCCCCN(C)c1nc(NCC(C)c2ccccc2)nc(Nc2ccc3ncsc3c2)n1)C(N)=O (stereo unspecified)
6. Cc1ccc(C(=O)NCC(F)(F)F)cc1Nc1nc(N[C@H]2CCNC2)nc(N(C)CC(C)(C)C)n1
7. CN(CC1CCC2CC1C2(C)C)c1nc(Nc2ccc3ncsc3c2)nc(N2CCN(C(=O)OC(C)(C)C)CC2)n1 (stereo unspecified)

output:
["< 1 µM", "< 1 µM", "< 10 µM", "< 1 µM", "< 10 µM", "< 1 µM", "< 10 µM"]

Please supply IC50 for each of the following items, keeping them in order.
1. CN(CC1CCC2CC1C2(C)C)c1nc(Nc2ccc3ncsc3c2)nc(N2CCNCC2)n1 (stereo unspecified)
2. C[C@H](CNc1nc(Cl)nc(Nc2ccc3ncsc3c2)n1)c1ccccc1
3. CNc1nc(Nc2cc(C(=O)NOC)ccc2C)nc(N(C)CC(C)(C)C)n1
4. CC(CNc1nc(Nc2ccc3ncsc3c2)nc(N2CCN(C(=O)C3CCOC3)CC2)n1)c1ccccc1 (stereo unspecified)
5. CNC(=O)c1ccc(C)c(Sc2nc(NCc3ccccn3)nc(N(C)CC(C)(C)C)n2)c1
6. Cc1ccc(C(N)=O)cc1Nc1nc(NCC2(c3ccc(Cl)cc3)CC2)nc(N[C@H]2CCNC2)n1

output:
1: < 10 µM; 2: < 10 µM; 3: < 1 µM; 4: < 10 µM; 5: < 30 µM; 6: < 1 µM

input: Query: IC50; subject: CCCCC(C)c1nc(Nc2cc(C(N)=O)ccc2C)nc(N[C@H]2CCNC2)n1 (stereo partly specified)
output: < 1 µM
